# Test system: L1210 leukemia ip in BDF1 mice, survival T/C
# experimental-details: NCI In Vivo Anticancer Drug Screen. Data for tumor model L1210 Leukemia (intraperitoneal) in B6D2F1 (BDF1) mice
# condition-description: endpoint: mean survival time; dose: 200.0 mg/kg/injection; schedule: Q01DX001 (ip); vehicle: other; higher = longer survival
Inconclusive results and toxic doses are left out.
endpoint-label: T/C

# count of solved cases: 8
>  <compound>
O=C(O)c1c(O)c(Br)cc(Br)c1O

>  <target-of-assay>
L1210 leukemia ip in BDF1 mice, survival T/C

>  <T/C>
104 % of control

$$$$
>  <compound>
O=C(O)C(Cc1ccc(O)cc1)N(S(=O)(=O)Cc1ccccc1)S(=O)(=O)Cc1ccccc1 (stereo unspecified)

>  <target-of-assay>
L1210 leukemia ip in BDF1 mice, survival T/C

>  <T/C>
97 % of control

$$$$
>  <compound>
N#C/C(=C\c1ccccn1)c1ccc(Cl)cc1

>  <target-of-assay>
L1210 leukemia ip in BDF1 mice, survival T/C

>  <T/C>
92 % of control

$$$$
>  <compound>
O=C(c1ccccc1)C1CCCCC1

>  <target-of-assay>
L1210 leukemia ip in BDF1 mice, survival T/C

>  <T/C>
100 % of control

$$$$
>  <compound>
C/C=C\c1ccc(OC(=O)c2ccc([N+](=O)[O-])cc2)c(OC)c1

>  <target-of-assay>
L1210 leukemia ip in BDF1 mice, survival T/C

>  <T/C>
106 % of control

$$$$
>  <compound>
CC(CCN=Cc1ccccc1O)N=Cc1ccccc1O (stereo unspecified)

>  <target-of-assay>
L1210 leukemia ip in BDF1 mice, survival T/C

>  <T/C>
97 % of control

$$$$
>  <compound>
O=C(CSc1cc(Cl)ccc1Cl)Nc1ccccc1

>  <target-of-assay>
L1210 leukemia ip in BDF1 mice, survival T/C

>  <T/C>
96 % of control

$$$$
>  <compound>
CCn1c(/C=N/NC(N)=S)cc2ccccc21

>  <target-of-assay>
L1210 leukemia ip in BDF1 mice, survival T/C

>  <T/C>
104 % of control

$$$$

For every record below, what is its T/C?
1. CNC(=O)OCCOC(=O)NC
2. CCC1C(=O)OCc2c1cc(C(=O)OC)n(C)c2=O (stereo unspecified)
3. O=C1C=C(Nc2ccc(Cl)cc2)c2ccccc2C1=O

Marked response:
1. 109 % of control
2. 93 % of control
3. 90 % of control

====

Can you tell me T/C for the items I'm about to list?
# Test system: L1210 leukemia ip in BDF1 mice, survival T/C
# experimental-details: NCI In Vivo Anticancer Drug Screen. Data for tumor model L1210 Leukemia (intraperitoneal) in B6D2F1 (BDF1) mice
# condition-description: endpoint: mean survival time; dose: 400.0 mg/kg/injection; schedule: Q04DX003 (ip); vehicle: saline with Tween-80; higher = longer survival
# Procedure: The antitumor activity of compounds was measured in mice bearing transplantable tumors. Survival or tumor size were measured and the results are expressed as the measurement made in the treated group (T) divided by the measurement made in the vehicle treated control group (C). The tumor model used in this assay is L1210 Leukemia (intraperitoneal) in B6D2F1 (BDF1) mice
Inconclusive results and toxic doses are left out. Square brackets hold non-standard residues; d marks the D form. Peptide text beside a SMILES is read from it. * marks the point of attachment. ξ: configuration not given here. ξF = NC(Cc1ccccc1)C(=O)O; Cbz = O=C(OCc1ccccc1)*; OBn = c1ccc(CO*)cc1

>  <molecule>
O=C(Nc1ccc(Cl)cc1[N+](=O)[O-])Oc1ccc(-c2ccccc2)cc1

>  <result>
95 % of control

$$$$
>  <molecule>
CC1=C2C(=O)c3ccccc3C2=C(C)S(=O)(=O)O1

>  <result>
98 % of control

$$$$
>  <molecule>
COC(=O)Cc1ccccc1C(=O)OC

>  <result>
100 % of control

$$$$

Please examine the following record next.
Exam item: Sample O=C(CNC(=O)OCc1ccccc1)NC(Cc1ccccc1)C(=O)OCc1ccccc1 (stereo not drawn) (Cbz-Gly-[ξF]-OBn) — what was its T/C?
Marked response: 95 % of control
